# System: Mus musculus
# test.details: Analgesic activity against acetic acid-induced writhing in Swiss Albino mouse assessed as protection at 50 mg/kg, po
# Assay type: functional
We label by threshold. Values of Activity strictly beneath 40% are yes (1). Values of 40% and up are no (0).

Exam item: Is it true that Activity reported for COc1ccc(Br)c(C(=O)NNc2nc(-c3ccnc(Cl)c3)cs2)c1 is less than 40%?
Marked response: yes (1)

Exam item: Is it true that Activity reported for COc1ccc(Br)c(C(=O)NNc2nc(-c3ccccc3)cs2)c1 is less than 40%?
Marked response: yes (1)

Exam item: Is it true that Activity reported for COc1ccc(Br)c(C(=O)NNc2nc(-c3ccc(O)c(C(N)=O)c3)cs2)c1 is less than 40%?
Marked response: no (0)

Exam item: Is it true that Activity reported for COc1ccc(Br)c(C(=O)NNc2nc(-c3ccc(O)c(O)c3)cs2)c1 is less than 40%?
Marked response: yes (1)

Exam item: Is it true that Activity reported for COc1ccc(Br)c(C(=O)NNc2nc(-c3cc4ccccc4oc3=O)cs2)c1 is less than 40%?
Marked response: yes (1)

Exam item: Is it true that Activity reported for COc1ccc(Br)c(C(=O)NNc2nc(-c3ccc(Cl)cc3)cs2)c1 is less than 40%?
Marked response: no (0)

Exam item: Is it true that Activity reported for COc1ccc(-c2csc(NNC(=O)c3cc(OC)ccc3Br)n2)cc1 is less than 40%?
Marked response: yes (1)

Exam item: Is it true that Activity reported for COc1ccc(Br)c(C(=O)NNc2nc(-c3cc4cc(Br)ccc4oc3=O)cs2)c1 is less than 40%?
Marked response: no (0)
